Assayed Target: SmCHK6 (Selaginella moellendorffii, UniProt D8SUD5)
Sequence (D8SUD5 entry or part of it): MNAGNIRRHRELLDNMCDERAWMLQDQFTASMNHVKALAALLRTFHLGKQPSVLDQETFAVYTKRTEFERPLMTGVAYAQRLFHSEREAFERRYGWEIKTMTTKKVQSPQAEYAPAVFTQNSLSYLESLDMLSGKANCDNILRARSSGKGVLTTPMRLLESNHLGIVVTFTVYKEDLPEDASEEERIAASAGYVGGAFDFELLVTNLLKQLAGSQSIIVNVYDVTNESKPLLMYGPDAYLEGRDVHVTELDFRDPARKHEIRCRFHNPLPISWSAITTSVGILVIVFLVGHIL
Experiment Summary: competition of unlabeled CKs with 3H-iP, tobacco leaf microsomes expressing the receptor
Assay type: binding
Assay Conditions: read-out: KD of CK-Receptor Complexes
Endpoint Label: Kd
Your reply should be a number followed by the unit it is expressed in.

Task item: Suppose we examine the molecule C/C(=C/CNc1ncnc2nc[nH]c12)CO [cZ, cis-zeatin] ; what Kd value has been reported?
Reply: 16.6 nM

====

Assayed Target: PpCHK2 (Physcomitrium patens, UniProt A0A068JG96)
Sequence (A0A068JG96 entry or part of it): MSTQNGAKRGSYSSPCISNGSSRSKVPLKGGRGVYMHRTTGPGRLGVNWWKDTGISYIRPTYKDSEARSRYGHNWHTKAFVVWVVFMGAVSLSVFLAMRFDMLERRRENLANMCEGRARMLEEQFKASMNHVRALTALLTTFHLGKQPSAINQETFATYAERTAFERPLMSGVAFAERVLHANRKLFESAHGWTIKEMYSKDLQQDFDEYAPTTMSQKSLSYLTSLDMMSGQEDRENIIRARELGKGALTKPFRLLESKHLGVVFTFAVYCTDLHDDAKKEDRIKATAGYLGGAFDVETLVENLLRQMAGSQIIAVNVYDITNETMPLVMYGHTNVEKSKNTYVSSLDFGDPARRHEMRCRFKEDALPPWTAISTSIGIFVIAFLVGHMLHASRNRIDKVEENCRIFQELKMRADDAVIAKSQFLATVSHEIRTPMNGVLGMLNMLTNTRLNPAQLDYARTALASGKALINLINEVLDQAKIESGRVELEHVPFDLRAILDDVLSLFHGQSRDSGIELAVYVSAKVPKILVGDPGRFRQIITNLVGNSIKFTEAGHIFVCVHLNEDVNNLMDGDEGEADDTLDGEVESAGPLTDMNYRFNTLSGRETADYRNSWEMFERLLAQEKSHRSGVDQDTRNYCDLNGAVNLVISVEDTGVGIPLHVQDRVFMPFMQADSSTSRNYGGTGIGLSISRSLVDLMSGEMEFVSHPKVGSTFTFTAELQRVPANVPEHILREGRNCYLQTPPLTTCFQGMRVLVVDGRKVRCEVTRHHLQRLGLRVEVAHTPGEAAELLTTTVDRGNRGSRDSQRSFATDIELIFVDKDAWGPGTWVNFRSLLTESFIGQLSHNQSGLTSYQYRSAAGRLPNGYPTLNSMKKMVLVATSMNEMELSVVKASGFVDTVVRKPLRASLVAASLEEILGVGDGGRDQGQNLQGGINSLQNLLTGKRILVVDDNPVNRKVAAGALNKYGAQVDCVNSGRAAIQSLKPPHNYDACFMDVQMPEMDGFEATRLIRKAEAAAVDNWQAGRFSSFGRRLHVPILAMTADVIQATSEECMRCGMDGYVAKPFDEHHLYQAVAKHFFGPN
Experiment Summary: competition of unlabeled CKs with 3H-iP, tobacco leaf microsomes expressing the receptor
Assay type: binding
Assay Conditions: read-out: KD of CK-receptor complexes
Endpoint Label: Kd (nM)
API: value field is a number in nM; no unit string.

Task item: Suppose we examine the compound C/C(=C/CNc1ncnc2nc[nH]c12)CO [cZ, cis-zeatin] ; what Kd value has been reported?
Reply: 48.6

====

Assayed Target: PaCHK2
Experiment Summary: competition of unlabeled CKs with 3H-iP, tobacco leaf microsomes expressing the receptor
Type: binding, Picea abies
Assay Conditions: PaCHK2; competition with 3H-iP; alternative calculation method (Appendix A); ± SE; read-out: KD of CK-receptor complexes
Endpoint Label: pKd
In textbook form, pKd equals minus log to base ten of the concentration in mol/L.

Task item: Suppose we examine the compound c1ccc(CNc2ncnc3nc[nH]c23)cc1 [BA, benzyladenine] ; what pKd value has been reported?
Reply: 7.91

Task item: Suppose we examine the compound O=C(Nc1ccccc1)Nc1cnns1 [TD, thidiazuron] ; what pKd value has been reported?
Reply: 6.61

Task item: Suppose we examine the compound CC(CO)CCNc1ncnc2nc[nH]c12 (stereo not drawn) [DZ, dihydrozeatin] ; what pKd value has been reported?
Reply: 7.54

====

Assayed Target: PaCHK1
Experiment Summary: direct 3H-iP binding (saturation, pH dependence), tobacco leaf microsomes
Set-up: species or system Picea abies
Assay Conditions: saturation curve of 3H-iP specific binding
Endpoint Label: Kd (nM)
API: value field is a number in nM; no unit string.

Task item: Suppose we examine the molecule CC(C)=CCNc1ncnc2nc[nH]c12 ; what Kd value has been reported?
Reply: 3.89

====

Assayed Target: PpCHK2 (Physcomitrium patens, UniProt A0A068JG96)
Experiment Summary: competition of unlabeled CKs with 3H-iP, tobacco leaf microsomes expressing the receptor
Type: binding
Assay Conditions: read-out: KD of CK-Receptor Complexes
Endpoint Label: Kd
Your reply should be a number followed by the unit it is expressed in.

Task item: Observed Kd on PpCHK2 (Physcomitrium patens, UniProt A0A068JG96) for C/C(=C/CNc1ncnc2nc[nH]c12)CO [cZ, cis-zeatin] , please.
Reply: 0.0342 µM

====

Assayed Target: PpCHK2 (Physcomitrium patens)
Experiment Summary: competition of unlabeled CKs with 3H-iP, tobacco leaf microsomes expressing the receptor
Format: binding
Assay Conditions: PpCHK2; competition with 3H-iP; Cheng-Prusoff calculation method; ± SE; read-out: KD of CK-Receptor Complexes
Please go through the items and note down their pKd.
In textbook form, pKd equals minus log to base ten of the concentration in mol/L.

Task item: Suppose we examine the molecule O=C(Nc1ccccc1)Nc1cnns1 ; what pKd value has been reported?
Reply: 7.89

Task item: Suppose we examine the molecule c1ccc(CNc2ncnc3nc[nH]c23)cc1 ; what pKd value has been reported?
Reply: 7.97

Task item: Suppose we examine the molecule CC(CO)CCNc1ncnc2nc[nH]c12 (stereo not shown) [DZ, dihydrozeatin] ; what pKd value has been reported?
Reply: 6.49

Task item: Suppose we examine the molecule C/C(=C\CNc1ncnc2[nH]cnc12)CO [tZ, trans-zeatin] ; what pKd value has been reported?
Reply: 7.74

====

Assayed Target: PaCHK1
Experiment Summary: competition of unlabeled CKs with 3H-iP, tobacco leaf microsomes expressing the receptor
Assay type: binding, Picea abies
Assay Conditions: PaCHK1; competition with 3H-iP; alternative calculation method (Appendix A); ± SE; read-out: KD of CK-receptor complexes
Endpoint Label: pKd
In textbook form, pKd equals minus log to base ten of the concentration in mol/L.

Task item: Suppose we examine the compound O=C(Nc1ccccc1)Nc1cnns1 [TD, thidiazuron] ; what pKd value has been reported?
Reply: 8.42

Task item: Suppose we examine the compound CC(CO)CCNc1ncnc2nc[nH]c12 (stereo not shown) [DZ, dihydrozeatin] ; what pKd value has been reported?
Reply: 6.61

Task item: Suppose we examine the compound CC(C)=CCNc1ncnc2nc[nH]c12 [iP, isopentenyladenine] ; what pKd value has been reported?
Reply: 8.52

Task item: Suppose we examine the compound c1ccc(CNc2ncnc3nc[nH]c23)cc1 [BA, benzyladenine] ; what pKd value has been reported?
Reply: 7.42

====

Assayed Target: SmCHK4a (Selaginella moellendorffii, UniProt D8R9F4)
Sequence (D8R9F4 entry or part of it): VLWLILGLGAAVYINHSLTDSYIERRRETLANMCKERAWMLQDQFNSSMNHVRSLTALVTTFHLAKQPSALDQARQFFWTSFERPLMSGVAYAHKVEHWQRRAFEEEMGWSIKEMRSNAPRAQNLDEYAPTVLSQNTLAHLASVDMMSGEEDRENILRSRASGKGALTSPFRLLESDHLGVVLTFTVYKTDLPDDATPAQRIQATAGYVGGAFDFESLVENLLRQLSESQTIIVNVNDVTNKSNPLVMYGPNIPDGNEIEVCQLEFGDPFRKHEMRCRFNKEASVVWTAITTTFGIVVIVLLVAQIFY
Experiment Summary: competition of unlabeled CKs with 3H-iP, tobacco leaf microsomes expressing the receptor
Format: binding
Assay Conditions: SmCHK4a; competition with 3H-iP; alternative calculation method (Appendix A); ± SE; read-out: KD of CK-receptor complexes
Please go through the items and note down their Kd.
API: value field is a number in nM; no unit string.

Task item: Suppose we examine the compound c1ccc(CNc2ncnc3nc[nH]c23)cc1 [BA, benzyladenine] ; what Kd value has been reported?
Reply: 3.2

Task item: Suppose we examine the compound CC(C)=CCNc1ncnc2nc[nH]c12 [iP, isopentenyladenine] ; what Kd value has been reported?
Reply: 0.8

====

Assayed Target: SmCHK4a (Selaginella moellendorffii, UniProt D8R9F4)
Experiment Summary: competition of unlabeled CKs with 3H-iP, tobacco leaf microsomes expressing the receptor
Format: binding
Assay Conditions: read-out: KD of CK-Receptor Complexes
Endpoint Label: Kd (nM)
API: value field is a number in nM; no unit string.

Task item: Suppose we examine the compound C/C(=C/CNc1ncnc2nc[nH]c12)CO [cZ, cis-zeatin] ; what Kd value has been reported?
Reply: 20.6

====

Assayed Target: PpCHK1 (Physcomitrium patens)
Sequence (A0A068JFF6 entry or part of it): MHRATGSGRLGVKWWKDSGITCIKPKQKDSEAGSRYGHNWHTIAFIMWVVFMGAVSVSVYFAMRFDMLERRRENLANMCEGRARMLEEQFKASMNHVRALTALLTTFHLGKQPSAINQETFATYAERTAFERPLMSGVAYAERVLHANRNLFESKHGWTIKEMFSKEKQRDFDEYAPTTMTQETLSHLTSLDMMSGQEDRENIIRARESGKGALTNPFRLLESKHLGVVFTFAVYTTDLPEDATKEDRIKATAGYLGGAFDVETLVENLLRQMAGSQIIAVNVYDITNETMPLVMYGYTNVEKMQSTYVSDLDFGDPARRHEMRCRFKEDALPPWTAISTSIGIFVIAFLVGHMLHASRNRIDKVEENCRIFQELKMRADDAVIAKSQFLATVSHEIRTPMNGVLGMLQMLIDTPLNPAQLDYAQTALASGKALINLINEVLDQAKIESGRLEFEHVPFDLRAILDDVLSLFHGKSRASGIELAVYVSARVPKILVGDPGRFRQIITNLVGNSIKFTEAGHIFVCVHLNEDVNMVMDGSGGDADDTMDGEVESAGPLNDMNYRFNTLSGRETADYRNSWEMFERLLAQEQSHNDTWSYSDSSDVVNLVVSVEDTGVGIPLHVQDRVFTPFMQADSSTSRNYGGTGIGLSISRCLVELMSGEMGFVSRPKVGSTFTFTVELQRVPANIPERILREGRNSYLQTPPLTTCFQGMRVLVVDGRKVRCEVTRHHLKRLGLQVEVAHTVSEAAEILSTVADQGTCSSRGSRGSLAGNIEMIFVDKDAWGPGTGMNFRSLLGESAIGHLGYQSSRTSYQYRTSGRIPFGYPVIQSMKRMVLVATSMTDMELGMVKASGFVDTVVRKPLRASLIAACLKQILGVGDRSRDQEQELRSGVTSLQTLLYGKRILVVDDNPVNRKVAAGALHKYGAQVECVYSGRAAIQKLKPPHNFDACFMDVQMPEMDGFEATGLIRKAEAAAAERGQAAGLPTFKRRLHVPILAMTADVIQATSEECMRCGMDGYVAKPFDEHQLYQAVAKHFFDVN
Experiment Summary: competition of unlabeled CKs with 3H-iP, tobacco leaf microsomes expressing the receptor
Assay type: binding
Assay Conditions: PpCHK1; competition with 3H-iP; Cheng-Prusoff calculation method; ± SE; read-out: KD of CK-Receptor Complexes
Endpoint Label: pKd
In textbook form, pKd equals minus log to base ten of the concentration in mol/L.

Task item: Suppose we examine the compound C/C(=C\CNc1ncnc2[nH]cnc12)CO [tZ, trans-zeatin] ; what pKd value has been reported?
Reply: 7.43

Task item: Suppose we examine the compound O=C(Nc1ccccc1)Nc1cnns1 ; what pKd value has been reported?
Reply: 7.62

Task item: Suppose we examine the compound c1ccc(CNc2ncnc3nc[nH]c23)cc1 ; what pKd value has been reported?
Reply: 7.86

Task item: Suppose we examine the compound CC(CO)CCNc1ncnc2nc[nH]c12 (stereo not shown) [DZ, dihydrozeatin] ; what pKd value has been reported?
Reply: 6.29

====

Assayed Target: PaCHK2
Experiment Summary: direct 3H-iP binding (saturation, pH dependence), tobacco leaf microsomes
Design: species or system Picea abies
Assay Conditions: saturation curve of 3H-iP specific binding
Endpoint Label: pKd
In textbook form, pKd equals minus log to base ten of the concentration in mol/L.

Task item: Suppose we examine the molecule CC(C)=CCNc1ncnc2nc[nH]c12 ; what pKd value has been reported?
Reply: 8.69

====

Assayed Target: PaCHK2
Experiment Summary: competition of unlabeled CKs with 3H-iP, tobacco leaf microsomes expressing the receptor
Format: binding, Picea abies
Assay Conditions: PaCHK2; competition with 3H-iP; Cheng-Prusoff calculation method; ± SE; read-out: KD of CK-Receptor Complexes
Endpoint Label: pKd
In textbook form, pKd equals minus log to base ten of the concentration in mol/L.

Task item: Suppose we examine the compound CC(CO)CCNc1ncnc2nc[nH]c12 (stereo not shown) [DZ, dihydrozeatin] ; what pKd value has been reported?
Reply: 7.65

Task item: Suppose we examine the compound O=C(Nc1ccccc1)Nc1cnns1 ; what pKd value has been reported?
Reply: 7.19

Task item: Suppose we examine the compound c1ccc(CNc2ncnc3nc[nH]c23)cc1 ; what pKd value has been reported?
Reply: 7.87

Task item: Suppose we examine the compound CC(C)=CCNc1ncnc2nc[nH]c12 ; what pKd value has been reported?
Reply: 8.66

====

Please go through the items and note down their pKd.
Assayed Target: PaCHK1
Experiment Summary: competition of unlabeled CKs with 3H-iP, tobacco leaf microsomes expressing the receptor
Assay type: binding, Picea abies
Assay Conditions: read-out: KD of CK-Receptor Complexes
In textbook form, pKd equals minus log to base ten of the concentration in mol/L.

Task item: Suppose we examine the compound C/C(=C\CNc1ncnc2[nH]cnc12)CO [tZ, trans-zeatin] ; what pKd value has been reported?
Reply: 8.12

Task item: Suppose we examine the compound C/C(=C/CNc1ncnc2nc[nH]c12)CO [cZ, cis-zeatin] ; what pKd value has been reported?
Reply: 6.38

====

Assayed Target: PaCHK2
Experiment Summary: competition of unlabeled CKs with 3H-iP, tobacco leaf microsomes expressing the receptor
Format: binding, Picea abies
Assay Conditions: read-out: KD of CK-receptor complexes
Please go through the items and note down their Kd.
API: value field is a number in nM; no unit string.

Task item: Suppose we examine the compound C/C(=C\CNc1ncnc2[nH]cnc12)CO [tZ, trans-zeatin] ; what Kd value has been reported?
Reply: 1.3

Task item: Suppose we examine the compound C/C(=C/CNc1ncnc2nc[nH]c12)CO [cZ, cis-zeatin] ; what Kd value has been reported?
Reply: 22.7
